Every entry's value here was drawn from ChEMBL document CHEMBL1131550.

Provide the reported pIC50 of each item.
pIC50 is defined as minus the log10 of a concentration measured in mol/L.

Kindly note: Caspase-1 (Mus musculus), CC(=O)N[C@@H](CC(=O)O)C(=O)N[C@@H](CCC(=O)O)C(=O)N[C@H](C(=O)N[C@H]1CC(=O)OC1O)C(C)C (stereo not given in full) , pIC50 value reported: 7.15

Summary line: C[C@@H](C(=O)N[C@H]1CC(=O)OC1O)N1CC[C@H](NC(=O)OCc2ccccc2)C1=O (stereo not given in full) , Caspase-1 (Mus musculus), reported pIC50 = 5.43

The reported pIC50 value, Caspase-1 (Mus musculus), for O=C1C[C@H](NC(=O)[C@@H]2CS[C@@H]3CCC[C@H](NC(=O)OCc4ccccc4)C(=O)N32)C(O)O1 (stereo not given in full) reads 6.80

Reported Caspase-1 (Mus musculus) pIC50 for item CC(=O)N[C@@H](CC(=O)O)C(=O)N[C@H](C(=O)N[C@@H](C)C(=O)N[C@H]1CC(=O)OC1O)C(C)C (stereo not given in full) was 6.28

Tested on Caspase-1 (Mus musculus), the item C[C@@H](C(=O)N[C@H]1CC(=O)OC1O)N1CCCC[C@H](NC(=O)OCc2ccccc2)C1=O (stereo not given in full) showed pIC50 equal to 6.73

Bench note, Caspase-1 (Mus musculus): CC(C)[C@H](NC(=O)OCc1ccccc1)C(=O)N[C@@H](C)C(=O)N[C@H]1CC(=O)OC1O (stereo not given in full) , pIC50 reads 7.19

// assay Caspase-1 (Mus musculus), entry CC(=O)N[C@@H](Cc1ccc(O)cc1)C(=O)N[C@H](C(=O)N[C@@H](C)C(=O)N[C@H]1CC(=O)OC1O)C(C)C (stereo not given in full) , pIC50 value = 8.34

The compound O=C(CN1CCC[C@H](NC(=O)OCc2ccccc2)C1=O)N[C@H]1CC(=O)OC1O (stereo not given in full) , tested on Caspase-1 (Mus musculus), showed pIC50 of 4.43

With Caspase-1 (Mus musculus) as the test system, CC(C)[C@H](NC(=O)OCc1ccccc1)C(=O)N1CCCC[C@H]1C(=O)N[C@H]1CC(=O)OC1O (stereo not given in full) showed pIC50 of 7.02

* * *

# experimental system: UniProt:P42574
# Sequence (P42574 29-175 limits assumed): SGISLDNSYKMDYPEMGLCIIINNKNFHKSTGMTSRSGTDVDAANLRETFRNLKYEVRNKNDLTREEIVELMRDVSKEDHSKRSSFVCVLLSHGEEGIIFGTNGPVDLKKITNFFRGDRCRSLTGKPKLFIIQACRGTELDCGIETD
# Sequence (P42574 176-277 limits assumed): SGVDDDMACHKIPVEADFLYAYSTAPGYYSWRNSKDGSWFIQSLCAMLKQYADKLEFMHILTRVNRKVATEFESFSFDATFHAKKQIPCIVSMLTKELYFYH
# assay info: Inhibitory activity against human Caspase-3 using Ac-AspGluValAsp as substrate
observation type: pIC50
# pIC50 is unitless: minus log10 of the molar concentration; print number only

Value of pIC50 reported for the compound CC(=O)N[C@@H](CC(=O)O)C(=O)N[C@@H](CCC(=O)O)C(=O)N[C@H](C(=O)N[C@H]1CC(=O)OC1O)C(C)C (some centres not stated) is 8.92
